The reported measurements were obtained from ChEMBL document CHEMBL1158260.

procedure-summary: Inhibition of human DNA polymerase alpha
measured-metric: pIC50
Scale: pIC50 equals -log10([C]), with [C] in mol/L.

>>> assay_value("COc1cc2cc3c(c(-c4ccc5c(c4)OCO5)c2cc1OC)COC3=O")
3.00

--- query ---
Task: Read off the recorded pIC50 for `COCc1cc2cc(OC)c(OC)cc2c(-c2ccc3c(c2)OCO3)c1C=O`
Output: 3.54
